test system: NCI-H23 lung; test: NCI-60 one-dose screen, 48 h; settings: 10 µM unless noted
About 83,000 compounds went through this panel and 20% of them were active in at least one assay; those are over-represented in the sample as a whole. Activity calls are given as the source filed them. The calls were made as follows: active = growth percent below 10; inactive = the rest.
Outcomes you can answer with include only these: label 1 for active, label 0 for inactive

Which outcome was entered for the molecule "FC(F)(F)c1nc2c(NCc3ccc(-c4ccccc4)cc3)cccc2[nH]1" in this test? label 0

For "CC(=O)c1cc2c(N)c(C(=O)Nc3cccc(F)c3C)sc2nc1C" , what call appears in the results of this test? label 0

So what was the verdict on "O=C(N/N=C/c1c[nH]c2ccccc12)c1cc(-c2ccccc2)on1" in this test? label 0

Which outcome was assigned to "N#Cc1nnn(-c2ccc(S(N)(=O)=O)cc2)c1NCC(=O)c1ccccc1" in this test? label 0

Could you check what this test reported for "NC(=O)c1cc(Br)ccc1NC(=O)/C=C/c1ccccc1" ? label 0

Continuing:
Any idea what this test logged for "Cc1cc(C)nc(SC2=C(Nc3cccc(Cl)c3C)C(=O)N(Cc3ccccc3)C2=O)n1" ? label 0

Any idea what this test logged for "COc1cccc(-c2nn(C(C)(C)C)cc2-c2ccnc(NCCCNS(=O)(=O)c3ccc(C)cc3)c2)c1" ? label 0

What is the recorded call for this molecule in the test? Nc1n[nH]c2ccc([C@@H]3Nc4ccc5[nH]ncc5c4[C@H]4C5C=CC(C5)[C@@H]34)cc12 (some centres undefined) label 0

Call for entry "Cc1cc2c3ccccc3ccc2[n+]2ccccc12" : label 0

Per the records of this test, what outcome belongs to "O=C1CSC(=S)N1CCc1ccc(O)cc1" ? label 0

Tell me the assay call for "Cc1cc(C)c2nc3nc(C)cc(C)c3c(N)c2c1" please. label 0

// return assay outcome for "CCOC(=O)c1c(C)oc2ncnc(N3CCN(C(=O)COc4ccc(SC)cc4)CC3)c12" label 0

Recorded call for OCC(O)c1nc2ccc3[nH]ncc3c2c2c1CCCC2 (centres undefined) ? label 1

Per the records of this test, what outcome belongs to "COc1ccc(-c2nc3ccc(-c4nc5ccc(N6CCN(C)CC6)cc5[nH]4)cc3[nH]2)cc1OC" ? label 0
